Tested on: Wheat and Barley and weed species
Experiment: Post-Emergent Test III: postemergent herbicidal activity in wheat and barley, visual rating after 21 d and probit GR20/GR50/GR80/GR90 (Tables 9-13)
Format: in vivo
Conditions: post-emergence, 504 h; ALOMY black-grass (Alopecurus myosuroides); 17.5 g ai/ha; read-out: Visual Growth Reduction (%) 21 Days After Application ALOMY
# Lookup of reported pest or weed control at 17.5 g/ha keyed by entry

Some compounds with recorded pest or weed control at 17.5 g/ha:
chemical.structure	pest or weed control at 17.5 g/ha
COC(=O)c1nc(-c2ccc3c(c2)OC(C)(C)O3)c(F)c(N)c1Cl	0 to 29%
COC(=O)c1nc(-c2cc3c(cc2F)OC(F)(F)O3)cc(N)c1Cl	85 to 94%
Nc1c(F)c(-c2cc3c(cc2F)OC(F)(F)O3)nc(C(=O)O)c1Cl	45 to 59%
Nc1c(F)c(-c2ccc3c(c2)OC(F)(F)O3)nc(C(=O)O)c1Cl	45 to 59%
Nc1c(F)c(-c2ccc3c(c2F)OC(F)(F)O3)nc(C(=O)O)c1Cl	30 to 44%

API: the following record is the query input.
Can you look up the measured pest or weed control at 17.5 g/ha of `COC(=O)c1nc(-c2cc3c(cc2F)OC(F)(F)O3)c(F)c(N)c1Cl` for me?
75 to 84%

----------
Test system: Key Broadleaf Weed and Crop Species
Test: Post-Emergent Test II: postemergent herbicidal activity, visual rating after 14 d (Table 7)
Format: in vivo
Details: post-emergence, 336 h, wild poinsettia (Euphorbia heterophylla), 35 g ai/ha, read-out: Visual Growth Reduction (%) 14 Days After Application EPHHL
Procedure: Herbicidal evaluations were made visually on a scale of 0 to 100 where 0 represents no activity and 100 represents complete plant death. […] A weighed amount, determined by the highest rate to be tested, of each test compound was placed in a 25 mL glass vial and was dissolved in 4 mL of a 97:3 v/v mixture of acetone and DMSO to obtain concentrated stock solutions. […]
property.label: pest or weed control at 35 g/ha

Item `COC(=O)c1nc(-c2ccc3c(c2Cl)OC(F)(F)O3)cc(N)c1Cl` has what recorded pest or weed control at 35 g/ha?
0 to 29%

Given the entry `Nc1cc(-c2ccc3c(c2F)OC(F)(F)O3)nc(C(=O)O)c1Cl` , report its measured pest or weed control at 35 g/ha.
95 to 100%

Return reported pest or weed control at 35 g/ha; argument: `Cc1c(-c2ccc3c(c2)OC(F)(F)O3)nc(C(=O)O)c(Cl)c1N`
0 to 29%

What does the record list as pest or weed control at 35 g/ha for `COC(=O)c1nc(-c2c(F)cc3c(c2F)OC(F)(F)O3)cc(N)c1Cl` ?
30 to 44%

What measured pest or weed control at 35 g/ha goes with `COC(=O)c1nc(-c2ccc3c(c2)OC(F)(F)O3)c(Cl)c(N)c1Cl` ?
0 to 29%

Return reported pest or weed control at 35 g/ha; argument: `COC(=O)c1nc(-c2cccc3c2OC(F)(F)O3)c(F)c(N)c1Cl`
0 to 29%

Quick one: pest or weed control at 35 g/ha of `COC(=O)c1nc(-c2cc3c(cc2F)OC(F)(F)O3)nc(N)c1Cl` ?
60 to 74%

Data request, read-out pest or weed control at 35 g/ha, for `COC(=O)c1nc(-c2cc3c(cc2F)OCO3)nc(N)c1OC`
0 to 29%

What does the data say about its pest or weed control at 35 g/ha? Entry: `C=Cc1c(C(=O)O)nc(-c2ccc3c(c2)OC(F)(F)O3)c(F)c1N`
60 to 74%

----------
As shown below, each of these compounds has a reported pest or weed control at 35 g/ha value.
Test system: Key Grass and Sedge Weeds as well as Grass Crops
Test: Post-Emergent Test II: postemergent herbicidal activity, visual rating after 14 d (Table 8)
Type: in vivo
Conditions: post-emergence, 336 h, giant foxtail (Setaria faberi), 35 g ai/ha, read-out: Visual Growth Reduction (%) 14 Days After Application SETFA

// worked examples, pest or weed control at 35 g/ha included
chemical.structure	pest or weed control at 35 g/ha
COC(=O)c1nc(-c2ccc3c(c2C)OC(F)(F)O3)cc(N)c1Cl	0 to 29%
COC(=O)c1nc(-c2ccc3c(c2)OC(F)(F)O3)c(C)c(N)c1Cl	0 to 29%
COC(=O)c1nc(-c2cc3c(cc2F)OC(F)(F)O3)c(F)c(N)c1F	0 to 29%
COC(=O)c1nc(-c2cc3c(cc2F)OC(F)(F)O3)nc(N)c1OC	0 to 29%

Now for a further compound.
Which pest or weed control at 35 g/ha reading was recorded for the compound `COC(=O)c1nc(-c2cc3c(cc2F)OCO3)cc(N)c1Cl` ?
60 to 74%

----------
Recorded pest or weed control at 70 g/ha by entry
Tested on: Key Grass and Sedge Weeds as well as Grass Crops
Assay: Post-Emergent Test II: postemergent herbicidal activity, visual rating after 14 d (Table 8)
Type: in vivo
Settings: post-emergence, 336 h, yellow nutsedge (Cyperus esculentus), 70 g ai/ha, read-out: Visual Growth Reduction (%) 14 Days After Application CYPES

Sample records with pest or weed control at 70 g/ha:
compound	pest or weed control at 70 g/ha
COc1c(N)nc(-c2ccc3c(c2F)OC(F)(F)O3)nc1C(=O)O [Compound 66]	95 to 100%
COC(=O)c1nc(-c2ccc(Br)c3c2OC(F)(F)O3)c(F)c(N)c1Cl [Compound 78]	0 to 29%
COC(=O)c1nc(-c2ccc3c(c2)OC(F)(F)O3)c(F)c(N)c1OC [Compound 24]	95 to 100%
COC(=O)c1nc(-c2cc3c(cc2F)OCO3)cc(N)c1Cl [Compound 45]	30 to 44%
COc1c(C(=O)O)nc(-c2cc3c(cc2F)OC(F)(F)O3)c(F)c1N [Compound 23]	45 to 59%
Nc1c(Cl)c(C(=O)O)nc(-c2cc3c(cc2F)OC(F)(F)O3)c1Cl [Compound 3]	0 to 29%
Nc1cc(-c2cc(F)c3c(c2)OC(F)(F)O3)nc(C(=O)O)c1Cl [Compound 44]	0 to 29%
COC(=O)c1nc(-c2ccc3c(c2F)OC(F)(F)O3)cc(N)c1Cl [Compound 37]	95 to 100%

Turning to the following compound.
Which pest or weed control at 70 g/ha is reported for this compound? COC(=O)c1nc(-c2cc3c(cc2F)OCO3)nc(N)c1OC [Compound 69]
0 to 29%

----------
Tested on: Wheat and Barley and weed species
Assay: Post-Emergent Test III: postemergent herbicidal activity in wheat and barley, visual rating after 21 d and probit GR20/GR50/GR80/GR90 (Tables 9-13)
Assay type: in vivo
Settings: KCHSC kochia (Kochia scoparia); growth reduction of 50%; probit analysis
property.label: GR50 KCHSC

These recorded examples may help you get a feel for the data.
compound	target.of.assay	property.label	result
Nc1c(F)c(-c2ccc(Cl)c3c2OC(F)(F)O3)nc(C(=O)O)c1Cl [Compound 82]	Wheat and Barley and weed species	GR50 KCHSC	2 g ai/ha
Nc1cc(-c2cc3c(cc2F)OC(F)(F)O3)nc(C(=O)O)c1Cl [Compound 42]	Wheat and Barley and weed species	GR50 KCHSC	54 g ai/ha
COC(=O)c1nc(-c2c(F)cc3c(c2F)OC(F)(F)O3)cc(N)c1Cl [Compound 46]	Wheat and Barley and weed species	GR50 KCHSC	1 g ai/ha
COC(=O)c1nc(-c2ccc3c(c2)OC(C)(C)O3)c(F)c(N)c1Cl [Compound 8]	Wheat and Barley and weed species	GR50 KCHSC	21 g ai/ha

Entry COC(=O)c1nc(-c2ccc(Br)c3c2OC(F)(F)O3)c(F)c(N)c1Cl [Compound 78] : reported GR50 KCHSC = ?
2 g ai/ha

Query (compound): COC(=O)c1nc(-c2ccc3c(c2F)OC(F)(F)O3)c(F)c(N)c1Cl [Compound 10] ; field requested: GR50 KCHSC
78 g ai/ha

Query: GR50 KCHSC; subject: COC(=O)c1nc(-c2cc3c(cc2F)OC(F)(F)O3)c(F)c(N)c1Cl [Compound 9]
>70 g ai/ha

----------
Tested on: Wheat and Barley and weed species
Assay: Post-Emergent Test III: postemergent herbicidal activity in wheat and barley, visual rating after 21 d and probit GR20/GR50/GR80/GR90 (Tables 9-13)
Assay type: in vivo
Details: Triticum aestivum, post-emergence, 504 h; TRZAS wheat, spring (crop); 17.5 g ai/ha; read-out: Visual Growth Reduction (%) 21 Days After Application TRZAS
Reported pest or weed control at 17.5 g/ha values for the following molecules.

chemical.structure	property.label	result
Nc1c(F)c(-c2ccc(Cl)c3c2OC(F)(F)O3)nc(C(=O)O)c1Cl	pest or weed control at 17.5 g/ha	60 to 74%
COC(=O)c1nc(-c2ccc3c(c2)OC(C)(C)O3)c(F)c(N)c1Cl	pest or weed control at 17.5 g/ha	30 to 44%
COC(=O)c1nc(-c2cc3c(cc2F)OC(F)(F)O3)cc(N)c1Cl	pest or weed control at 17.5 g/ha	60 to 74%
Nc1c(F)c(-c2cc3c(cc2F)OC(F)(F)O3)nc(C(=O)O)c1Cl	pest or weed control at 17.5 g/ha	60 to 74%
COC(=O)c1nc(-c2ccc(Br)c3c2OC(F)(F)O3)c(F)c(N)c1Cl	pest or weed control at 17.5 g/ha	0 to 29%

Record lookup: for Wheat and Barley and weed species, what pest or weed control at 17.5 g/ha belongs to `COC(=O)c1nc(-c2cc3c(cc2F)OC(F)(F)O3)c(F)c(N)c1Cl` ?
60 to 74%

So what pest or weed control at 17.5 g/ha did `Nc1c(F)c(-c2ccc3c(c2)OC(F)(F)O3)nc(C(=O)O)c1Cl` get with Wheat and Barley and weed species?
75 to 84%

Form field: pest or weed control at 17.5 g/ha recorded for `Nc1c(F)c(-c2ccc3c(c2F)OC(F)(F)O3)nc(C(=O)O)c1Cl` with Wheat and Barley and weed species (enter value)
75 to 84%
